# Test description: chemical genetic growth profiling, strain panel (AID 1159580);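 further: tested at 20 µM; growth read once vehicle control cultures reached saturation at 30 °C; 1 = growth at the plate median or of vehicle wells; lower values mean less growth of the strain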
# Reported conditions: S. cerevisiae deletion strains, growth OD, locus YOR061W, strain CKA2, active compounds read low
The whole screen tested about 5,500 compounds, of which about 2,000 (36%) were called active. Roughly 18% stayed inconclusive and do not appear here. This is one part of the list.
Quantity name: normalized growth
Just the number, please, no unit attached.

Query block: Quick check: normalized growth of "Cc1ccc2c(c1)CCCN2CC(=O)N(c1ccccc1)C1CCCCC1" ?
Result block: 0.956

Query block: Please report the recorded normalized growth for "O=c1c(-c2cc(O)c(O)c(O)c2)coc2cc(O)c(O)c(O)c12" .
Result block: 0.87

Query block: What value of measured normalized growth is listed for CC1NC(=O)NC1=O (stereo not given) ?
Result block: 0.998

Query block: Record request: normalized growth value, item "CCCc1cnc(N2CCN(CC(=O)N(c3ccccc3)C3CCCCC3)CC2)nc1"
Result block: 1.01

Query block: So what does the record say about normalized growth for "CCCN1C[C@H](CSC)C[C@@H]2c3cccc4[nH]cc(c34)C[C@H]21" ?
Result block: 0.992

----------
For each of the compounds below, state its normalized growth.
# Test description: chemical genetic growth profiling, strain panel (AID 1159580)
# Reported conditions: S. cerevisiae deletion strains, growth OD, locus YDR334W, strain swr1, active compounds read low
Screen size: about 5,500 compounds; about 2,000 (36%) were called active. Roughly 18% stayed inconclusive and do not appear here. This is one part of the list.
Could you respond with only the numeric value?

Query block: Give the measured normalized growth of "CCN1CCN(c2cc3c(cc2F)c(=O)c(C(=O)O)cn3C2CC2)CC1" .
Result block: 1.02

Query block: What value of measured normalized growth is listed for "CN(C)CC/C=C1/c2ccccc2COc2ccccc21" ?
Result block: 1.02

Query block: What normalized growth value was documented for this compound, COCCOC(=O)C1=C(C)NC(C)=C(C(=O)OC(C)C)C1c1cccc([N+](=O)[O-])c1 (stereo not given) ?
Result block: 1

Query block: Using the record for CC1(C)O[C@@H]2CC3C4CCC5=CC(=O)C=C[C@]5(C)[C@@]4(F)[C@@H](O)C[C@]3(C)[C@]2(C(=O)CO)O1 (stereo not given in full) , report its normalized growth.
Result block: 0.997

Query block: Could you tell me which normalized growth is on file for CC(=O)OCC(=O)[C@H]1CCC2C3CC=C4C[C@@H](O)CC[C@]4(C)C3CC[C@@]21C (stereo not given in full) ?
Result block: 1.01

Query block: # query: normalized growth of entry "COc1c(O)cc2c(-c3ccccc3)cc(=O)oc2c1OC"
Result block: 1

Query block: Query: normalized growth; subject: "CN(C)CCC=C1c2ccccc2CCc2ccccc21"
Result block: 0.98

Query block: // query normalized growth value for entry "C[N+]1(CCCCC[N+]2(C)CCCC2)CCCC1"
Result block: 0.991

Query block: I have this compound here, FC(F)(F)C(Cl)Br (stereo not given) , and I need its recorded normalized growth.
Result block: 1.02

Query block: Please give the measured normalized growth for this compound: "CCn1cc(C(=O)O)c(=O)c2cc(F)c(N3CCNCC3)cc21"
Result block: 0.981

----------
# Test description: chemical genetic growth profiling, strain panel (AID 1159580)
# Reported conditions: S. cerevisiae deletion strains, growth OD, locus YKL009W, strain mrt4, active compounds read low
In all, about 5,500 compounds went through this assay and about 2,000 (36%) were called active. Roughly 18% stayed inconclusive and do not appear here. Some of the results follow.
Consider the following compounds; for each one, report its normalized growth.
A bare number is all that is needed in reply.

Query block: Looking for the measured normalized growth of C=CCc1ccccc1OCC(O)CNC(C)C (stereo not given) , can you help?
Result block: 1

Query block: Can you share its normalized growth? I mean this compound: "CNCCC=C1c2ccccc2CCc2ccccc21"
Result block: 1.01

Query block: Entry "CCCCC1C(=O)N(c2ccccc2)N(c2ccccc2)C1=O" has what normalized growth?
Result block: 0.98

Query block: Which normalized growth reading was recorded for the compound "CN(C)CCC=C1c2ccccc2CCc2ccccc21" ?
Result block: 0.998

Query block: Field request: normalized growth | item: "CCn1cc(C(=O)O)c(=O)c2cc(F)c(N3CCNCC3)cc21"
Result block: 0.994

----------
What normalized growth was measured for each of the following?
# Test description: chemical genetic growth profiling, strain panel (AID 1159580)
# Reported conditions: S. cerevisiae deletion strains, growth OD, locus YIL073C, strain SPO22, active compounds read low
In all, about 5,500 compounds went through this assay and about 2,000 (36%) were called active. About 18% were inconclusive and are not listed. The list shows a part of the results.
Reply with just the number.

Query block: Name the recorded normalized growth for CCC1C2CC3C4N(C)c5ccccc5C45CC(C2C5OC(C)=O)N3C1OC(C)=O (configuration not stated) .
Result block: 1.08

Query block: Item under review: "O=c1c2ccccc2oc2ccc(O)cc12" . Reported normalized growth?
Result block: 0.815

Query block: GET /values?readout=normalized growth&item= "COc1cc2cc[n+]3cc4c(OC)c(OC)ccc4cc3c2cc1OC"
Result block: 0.875

Query block: Field request: normalized growth | item: "CC(C)(Oc1ccc(Cl)cc1)C(=O)O"
Result block: 0.948

Query block: Give its normalized growth value. Item: "Nc1nc(N)c2nc(-c3ccccc3)c(N)nc2n1"
Result block: 1.05

Query block: Would you mind telling me what normalized growth value was observed for CCN(CCCCOC(=O)c1ccc(OC)c(OC)c1)C(C)Cc1ccc(OC)cc1 (configuration not stated) ?
Result block: 0.986

Query block: Record request: normalized growth value, item "Nc1ccc(C(=O)O)c(O)c1"
Result block: 1.04

Query block: Quick one: normalized growth for "O=c1oc2ccccc2c(O)c1Cc1c(O)c2ccccc2oc1=O" ?
Result block: 0.979

Query block: What measured normalized growth goes with "C[N+]1(CCCCC[N+]2(C)CCCC2)CCCC1" ?
Result block: 1.05

Query block: Which normalized growth reading was recorded for the compound C=CCc1ccccc1OCC(O)CNC(C)C (configuration not stated) ?
Result block: 1.06

Query block: I would be grateful if you could share the reported normalized growth for "CC(=O)Nc1ccc(O)cc1" .
Result block: 1.04

Query block: What measured normalized growth goes with "Cc1coc2ccccc2c1=O" ?
Result block: 1.09

----------
# Test description: chemical genetic growth profiling, strain panel (AID 1159580);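 further: tested at 20 µM; growth read once vehicle control cultures reached saturation at 30 °C; 1 = growth at the plate median or of vehicle wells; lower values mean less growth of the strain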
# Reported conditions: S. cerevisiae deletion strains, growth OD, locus YGR052W, strain FMP48
About 2,000 (36%) of roughly 5,500 compounds were called active. About 18% were inconclusive and are not listed. Cut-off read from the data, not from the text of the source: active = normalized growth mostly below about 0.91 (no sharp cut-off); inconclusive = no clear call, values can overlap the other calls; inactive = mostly above about 0.92. The list shows a part of the results.
Respond using exactly one of the listed classes: active, inactive

Query block: Identify the outcome logged in this assay for the molecule shown: "Cc1ccc(C(O)(c2ccccc2)c2ccccc2)c2ccccc12"
Result block: inactive

Query block: Per the assay record, what outcome was assigned to "CC(C)(C)c1csc(NC(=O)Nc2ccc(Cl)cc2)n1" ?
Result block: active

Query block: Kindly provide the recorded test outcome for the following molecule: Cc1cc(C(=O)N(c2ccccc2)C(C)C2CC2)c(Cl)cc1Cl (stereo not given)
Result block: inactive

Query block: Given "CC(C)(C)c1csc(NC(=O)c2ccc(Cl)cc2Cl)n1" , state the outcome it received in this test.
Result block: inactive

Query block: Recorded call for "O=C(CSCc1nc(-c2ccc(Cl)cc2)cs1)N/N=C\c1cccs1" ?
Result block: inactive

----------
So I've got a bunch of compounds here, and I need their normalized growth values.
# Test description: chemical genetic growth profiling, strain panel (AID 1159580);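 further: tested at 20 µM; growth read once vehicle control cultures reached saturation at 30 °C; 1 = growth at the plate median or of vehicle wells; lower values mean less growth of the strain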
# Reported conditions: S. cerevisiae deletion strains, growth OD, locus YBR231C, strain swc5, active compounds read low
Out of some 5,500 compounds screened, about 2,000 (36%) were called active. About 18% were inconclusive and are not listed. The list shows a part of the results.

Query block: Which normalized growth reading was recorded for the compound "CC(=O)Nc1ccc(O)cc1" ?
Result block: 1.02 (inactive)

Query block: Need normalized growth, item "CC(=O)Nc1ccc(OC(=O)c2ccccc2O)cc1"
Result block: 0.992 (inactive)

Query block: Form field: reported normalized growth of "O=C(O)/C=C(\CC(=O)O)C(=O)O"
Result block: 0.998 (inactive)

----------
# Test description: chemical genetic growth profiling, strain panel (AID 1159580);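 further: tested at 20 µM; growth read once vehicle control cultures reached saturation at 30 °C; 1 = growth at the plate median or of vehicle wells; lower values mean less growth of the strain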
# Reported conditions: S. cerevisiae deletion strains, growth OD, locus YJL154C, strain vps35, active compounds read low
Screen size: about 5,500 compounds; about 2,000 (36%) were called active. Roughly 18% stayed inconclusive and do not appear here. The list shows a part of the results.
Exercise: state measured normalized growth for each of the compounds provided.
Reply: number alone, nothing else.

Query block: Please look up its normalized growth: CC(C)(O)[C@@H]1CC[C@](C)([C@H]2[C@@H](O)C[C@@]3(C)C4C[C@H](O[C@@H]5O[C@H](CO)[C@@H](O)[C@H](O)[C@H]5O)C5C(C)(C)[C@@H](O[C@@H]6OC[C@@H](O)[C@H](O)[C@H]6O)CC[C@@]56C[C@@]46CC[C@]23C)O1 (stereo not given in full)
Result block: 0.972

Query block: Entry under review: "O=c1cc(-c2cccc(O)c2)oc2ccc(O)cc12" . Reported normalized growth?
Result block: 0.962

Query block: I am curious: what normalized growth value has been reported for CC(=O)O[C@@H]1CC2C(C)(C)[C@H](O)C[C@H](O)[C@]2(C)C2CC[C@@]3(C)[C@H](c4ccoc4)OC(=O)[C@H]4O[C@]43[C@@]21C (stereo not given in full) ?
Result block: 0.996

Query block: Value lookup for normalized growth; key = "CC(C)Oc1ccc2c(=O)cc(-c3ccccc3)oc2c1"
Result block: 0.952

Query block: Need normalized growth, item CC(C)(C)C(=O)C(Oc1ccc(Cl)cc1)n1cncn1 (stereo not given)
Result block: 0.409

Query block: I'd like to know its normalized growth. The compound in question is CCC(CCC(C)[C@H]1CCC2C3CC=C4C[C@@H](O)CC[C@]4(C)C3CC[C@@]21C)C(C)C (stereo not given in full)
Result block: 1.02

Query block: Look up normalized growth for this compound: CC(C(=O)O)[C@H]1CCC2C3CC=C4C[C@@H](O)CC[C@]4(C)C3CC[C@@]21C (stereo not given in full)
Result block: 1.04

Query block: // returns reported normalized growth for input "Nc1ccc(C(=O)O)c(O)c1"
Result block: 0.99

Query block: So what does the record say about normalized growth for "COc1cc([C@@H]2c3cc4c(cc3[C@H](O)[C@H]3COC(=O)[C@@H]23)OCO4)cc(OC)c1OC" ?
Result block: 1.01

Query block: # get_value(readout='normalized growth', item= "C[n+]1cc2c3c(ccc2c2ccc4cc5c(cc4c21)OCO5)OCO3" )
Result block: 0.962

Query block: # query: normalized growth of entry "COC(=O)C1=C(C)NC(C)=C(C(=O)OC)C1c1ccccc1[N+](=O)[O-]"
Result block: 0.962

Query block: Which value of normalized growth has been reported for "O=c1c2ccccc2oc2ccccc12" in the records?
Result block: 0.964

Query block: Please look up its normalized growth: "NS(=O)(=O)c1cc2c(cc1C(F)(F)F)NCNS2(=O)=O"
Result block: 0.993

Query block: normalized growth for "NCC(=O)CCC(=O)O" ?
Result block: 0.979

Query block: I have this compound here, "O=c1cc(-c2ccc(O)cc2)oc2ccc(O)cc12" , and I need its recorded normalized growth.
Result block: 0.991

Query block: // lookup normalized growth for CC(=O)[C@H]1CCC2C3CC=C4C[C@@H](OC(=O)CCC(=O)O)CC[C@]4(C)C3CC[C@@]21C (stereo not given in full)
Result block: 0.988

Query block: Entry "COc1cccc(-c2cc(=O)c3ccc(OC)cc3o2)c1" has what normalized growth?
Result block: 0.959

Query block: Entry COC(=O)C1=C(C)NC(C)=C(C(=O)OCC(C)C)C1c1ccccc1[N+](=O)[O-] (stereo not given) has what normalized growth?
Result block: 0.344

Query block: Returns the measured normalized growth for the input compound. Input: CC(=O)O[C@H]1C[C@H](O[C@H]2[C@@H](O)C[C@H](O[C@H]3[C@@H](O)C[C@H](O[C@H]4CC[C@@]5(C)C(CCC6C5C[C@@H](O)[C@]5(C)[C@@H](C7=CC(=O)OC7)CC[C@]65O)C4)O[C@@H]3C)O[C@@H]2C)O[C@H](C)[C@H]1O[C@@H]1O[C@H](CO)[C@@H](O)[C@H](O)[C@H]1O (stereo not given in full)
Result block: 0.993

Query block: What measured normalized growth goes with "COc1ccc(-c2cc(=O)c3ccccc3o2)cc1" ?
Result block: 0.938

Query block: normalized growth for "COc1cc2cc[n+]3cc4c(OC)c(OC)ccc4cc3c2cc1OC" ?
Result block: 0.967

Query block: Look at this compound and give its reported normalized growth. "CC(=O)Nc1ccc(OC(=O)c2ccccc2O)cc1"
Result block: 0.985

Query block: Which normalized growth is listed for CC(=O)O[C@@H]1CC2C(C)(C)CCC(=O)[C@]2(C)C2CC[C@@]3(C)[C@H](c4ccoc4)OC(=O)C4OC43[C@@]21C (stereo not given in full) ?
Result block: 1

Query block: Please report the recorded normalized growth for C=CCc1ccccc1OCC(O)CNC(C)C (stereo not given) .
Result block: 0.99

Query block: Look up normalized growth: "Nc1ccc(C(=O)Oc2ccccc2)c(O)c1"
Result block: 0.941
